# Study Target: T1, recombinant human CD8 (rhCD8) (human, UniProt P01732 22-182)
# T1 construct: Soluble purified recombinant protein; also called purified recombinant human CD8 protein; soluble CD8
# T1 sequence (P01732 22-182 limits assumed): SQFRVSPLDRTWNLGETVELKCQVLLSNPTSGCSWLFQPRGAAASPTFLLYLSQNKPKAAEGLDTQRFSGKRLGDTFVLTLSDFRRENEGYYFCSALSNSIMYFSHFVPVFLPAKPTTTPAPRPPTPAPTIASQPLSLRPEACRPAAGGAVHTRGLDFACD
# Run Description: SPR (BIAcore), minibody captured via anti-human IgG Fc, hCD8 analyte at 50 nM
Readout Label: kon (M⁻¹ s⁻¹)
I only need the number, in M⁻¹ s⁻¹, no unit after it.

IAb_Mb2c_CD8 (other, also called variant 2c) QVQLVQSGAEVKKPGATVKISCKVSGFNIKDTYIHFVQQAPGKGLEWIGRIDPANDNTLYASKFQGKATITADTSTDTAYMELSSLRSGDTAVYYCGRGYGYYVFDHWGQGTLVTVSSGSTSGGGSGGGSGGGGSSDVQITQSPSSLSASVGDRVTITCRTSRSISQYLAWYQQKPGKVPKLLIYSGSTLQSGVPSRFSGSGSGTDFTLTISSLQPEDVATYYCQQHNENPLTFGGGTKVEIKEPKSCDKTHTCPPCGGGSSGGGSGGQPREPQVYTLPPSRDELTKNQVSLTCLVKGFYPSDIAVEWESNGQPENNYKTTPPVLDSDGSFFLYSKLTVDKSRWQQGNVFSCSVMHEALHNHYTQKSLSLSPGK; 720000

[in] Using the record for IAb_Mb1d_CD8 (other, also called variant 1d) DVQITQSPSSLSASVGDRVTITCRTSRSISQYLAWYQQKPGKVPKLLIYSGSTLQSGVPSRFSGSGSGTDFTLTISSLQPEDVATYYCQQHNENPLTFGGGTKVEIKGSTSGGGSGGGSGGGGSSQVQLVQSGAEVKKPGATVKISCKVSGFNIKDTYIHFVQQAPGKGLEWIGRIDPANDNTLYASKFQGKATITADTSTDTAYMELSSLRSEDTAVYYCGRGYGYYVFDHWGQGTLVTVSEPKSCDKTHTCPPCGGGSSGGGSGGQPREPQVYTLPPSRDELTKNQVSLTCLVKGFYPSDIAVEWESNGQPENNYKTTPPVLDSDGSFFLYSKLTVDKSRWQQGNVFSCSVMHEALHNHYTQKSLSLSPGK , state its measured kon.
[out] 700000

[in] Using the record for IAb_Mb2b_CD8 (other, also called IAb M2b CD8) EVQLVESGGGLVQPGGSLRLSCAASGFNIKDTYIHFVRQAPGKGLEWIGRIDPANDNTLYASKFQGKATISADTSKNTAYLQMNSLRAEDTAVYYCGRGYGYYVFDHWGQGTLVTVSSGSTSGGGSGGGSGGGGSSDVQITQSPSSLSASVGDRVTITCRTSRSISQYLAWYQQKPGKVPKLLIYSGSTLQSGVPSRFSGSGSGTDFTLTISSLQPEDVATYYCQQHNENPLTFGGGTKVEIKEPKSCDKTHTCPPCGGGSSGGGSGGQPREPQVYTLPPSRDELTKNQVSLTCLVKGFYPSDIAVEWESNGQPENNYKTTPPVLDSDGSFFLYSKLTVDKSRWQQGNVFSCSVMHEALHNHYTQKSLSLSPGK , state its measured kon.
[out] 540000

[in] Using the record for IAb_Mb1c_CD8 (other, also called variant 1c) DVQITQSPSSLSASVGDRVTITCRTSRSISQYLAWYQQKPGKVPKLLIYSGSTLQSGVPSRFSGSGSGTDFTLTISSLQPEDVATYYCQQHNENPLTFGGGTKVEIKGSTSGGGSGGGSGGGGSSQVQLVQSGAEVKKPGATVKISCKVSGFNIKDTYIHFVQQAPGKGLEWIGRIDPANDNTLYASKFQGKATITADTSTDTAYMELSSLRSGDTAVYYCGRGYGYYVFDHWGQGTLVTVSSEPKSCDKTHTCPPCGGGSSGGGSGGQPREPQVYTLPPSRDELTKNQVSLTCLVKGFYPSDIAVEWESNGQPENNYKTTPPVLDSDGSFFLYSKLTVDKSRWQQGNVFSCSVMHEALHNHYTQKSLSLSPGK , state its measured kon.
[out] 700000
